- tested_target: T1, recombinant protein His-fib-hTL1A (human)
- T1 construct: expressed in HEK293 cells; also called human TL1A
- T1 chain: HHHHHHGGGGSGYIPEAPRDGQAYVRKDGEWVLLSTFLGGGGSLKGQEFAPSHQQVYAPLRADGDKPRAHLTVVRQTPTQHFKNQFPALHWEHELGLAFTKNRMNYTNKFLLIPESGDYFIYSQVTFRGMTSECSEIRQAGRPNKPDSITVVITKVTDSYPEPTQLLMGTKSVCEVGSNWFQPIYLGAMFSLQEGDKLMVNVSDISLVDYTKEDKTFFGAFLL
- measurement_notes: SPR, Biacore T200; antibody captured by anti-human IgG (Fc), TL1A as analyte; 1:1 model
measure_name: koff

>  <binder>
anti-TL1A monoclonal antibody RVT-3101 (antibody, V domains shown) VH: QVQLVQSGAEVKKPGASVKVSCKASGYDFTYYGISWVRQAPGQGLEWMGWISTYNGNTHYARMLQGRVTMTTDTSTRTAYMELRSLRSDDTAVYYCARENYYGSGAYRGGMDVWGQGTTVTVSS VL: EIVLTQSPATLSLSPGERATLSCRASQSVSSYLAWYQQKPGQAPRLLIYDASNRATGIPARFSGSGSGTDFTLTISSLEPEDFAVYYCQQRSNWPWTFGQGTKVEIK

>  <measured_value>
0.0001 s⁻¹

$$$$
